Target: SERT (Homo sapiens)
Construct: expressed in transfected cells
Sequence (P31645 whole entry): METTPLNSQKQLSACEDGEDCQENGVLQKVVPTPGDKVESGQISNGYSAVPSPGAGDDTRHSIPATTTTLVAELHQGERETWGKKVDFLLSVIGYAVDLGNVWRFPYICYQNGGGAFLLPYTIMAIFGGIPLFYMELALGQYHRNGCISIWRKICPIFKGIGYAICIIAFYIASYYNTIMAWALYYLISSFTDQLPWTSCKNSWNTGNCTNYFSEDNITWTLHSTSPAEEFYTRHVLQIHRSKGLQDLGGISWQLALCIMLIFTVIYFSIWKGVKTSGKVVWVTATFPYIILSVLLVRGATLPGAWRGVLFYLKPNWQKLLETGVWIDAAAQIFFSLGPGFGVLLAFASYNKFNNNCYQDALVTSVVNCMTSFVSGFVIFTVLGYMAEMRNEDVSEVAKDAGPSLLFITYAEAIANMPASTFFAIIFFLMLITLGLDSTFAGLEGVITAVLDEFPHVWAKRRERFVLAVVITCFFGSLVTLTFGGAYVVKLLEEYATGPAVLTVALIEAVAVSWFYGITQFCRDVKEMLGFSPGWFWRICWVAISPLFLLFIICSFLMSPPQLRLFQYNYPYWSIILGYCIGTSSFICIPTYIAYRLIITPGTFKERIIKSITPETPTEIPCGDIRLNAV
Assay: Uptake-inhibition of [3H]5-HT in HEK293 cells stably expressing human SERT
Type: cell-based
Conditions: in Figure 3; read-out: IC50(SERT)
Assay Endpoint: IC50 (µM)

* CN[C@H](C)[C@H](O)c1ccc(CO)cc1 [Dihydro-(R,R)-4-OH-MMC] | 1700
* C[C@@H](N)[C@H](O)c1ccc(CO)cc1 [Dihydro-(R,R)-4-OH-MC] | 1400

###

Assay: LC-MS/MS detection of mephedrone metabolites in a human urine sample
Assay type: in vivo
Conditions: achiral LC-MS/MS, after enzymatic workup
Assay Endpoint: detection in human urine sample

- Cc1ccc(C(=O)C(C)N)cc1 (stereo not shown) [4-MC, nor-mephedrone, reference compound]: detected
- Cc1ccc(C(O)C(C)N)cc1 (stereo not shown) [dihydro-4-MC, dihydro-4-nor-mephedrone]: detected
- CNC(C)C(=O)c1ccc(CO)cc1.Cl (stereo not shown) [4-OH-MMC, 4-OH-mephedrone, reference compound]: detected
- CNC(C)C(O)c1ccc(CO)cc1 (stereo not shown) [dihydro-4-OH-MMC]: not found
- CC(N)C(=O)c1ccc(CO)cc1 (stereo not shown) [4-OH-MC]: not found
- CC(N)C(O)c1ccc(CO)cc1 (stereo not shown) [dihydro-4-OH-MC]: not found
